B1: Twister Ribozyme (parent)
chain: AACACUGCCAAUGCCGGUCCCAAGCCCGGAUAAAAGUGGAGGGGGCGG

# Variants of: B1
# protocol.details: self-cleavage, relative activity (ratio to wild type); higher = more cleavage; co-transcriptional
// values below are reported self-cleavage
value.kind: self-cleavage

A35U C46A    1.04
A10C G13C    0.408
A30U G44A    0.971
C15U G43A    0.225
C9A C25A    0.0586
G28U G43A    0.221
A10G G28A    1.08
A22G C26U    0.101
C46G G47C    0.981
